target: cdk1/cyclin B (Homo sapiens, UniProt P06493); experiment: Cyclin-dependent kinase assay, cdk1/cyclin B; conditions: CDK1 IC50, nM, Histone H1, 10 µM ATP
Sequence (P06493 whole entry): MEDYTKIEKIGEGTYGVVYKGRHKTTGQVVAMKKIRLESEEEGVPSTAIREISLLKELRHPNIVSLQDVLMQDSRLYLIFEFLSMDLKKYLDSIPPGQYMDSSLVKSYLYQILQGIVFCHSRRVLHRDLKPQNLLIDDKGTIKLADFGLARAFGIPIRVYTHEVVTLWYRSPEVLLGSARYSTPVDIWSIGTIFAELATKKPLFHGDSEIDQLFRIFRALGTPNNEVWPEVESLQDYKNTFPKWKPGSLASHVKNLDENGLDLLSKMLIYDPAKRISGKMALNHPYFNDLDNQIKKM
Sequence (P14635 whole entry partner): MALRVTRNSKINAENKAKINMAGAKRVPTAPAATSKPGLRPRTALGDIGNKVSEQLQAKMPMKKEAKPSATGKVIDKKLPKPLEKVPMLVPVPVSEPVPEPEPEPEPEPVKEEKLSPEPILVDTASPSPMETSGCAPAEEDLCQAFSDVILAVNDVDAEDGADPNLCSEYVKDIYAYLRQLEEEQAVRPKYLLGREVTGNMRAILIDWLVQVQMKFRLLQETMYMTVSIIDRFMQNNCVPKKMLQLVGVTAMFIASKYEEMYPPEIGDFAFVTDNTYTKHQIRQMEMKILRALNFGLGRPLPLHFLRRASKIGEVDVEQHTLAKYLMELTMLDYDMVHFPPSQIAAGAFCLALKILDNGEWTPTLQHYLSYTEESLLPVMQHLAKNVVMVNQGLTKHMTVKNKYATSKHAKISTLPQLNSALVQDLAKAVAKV
Where a name gives a salt, the structure may show the parent alone.
observable: IC50 (nM)
Numbers only, in nM.

Some entries whose results are on file:
- compound: "COC(=O)c1ccc(OC(=O)N2CCC(Nc3nc(N[C@H]4CC[C@H](N)CC4)nc4c3ncn4C3CCCC3)CC2)cc1.Cl.Cl [compound 83, dihydrochloride]"
  observable: "IC50"
  units-of-measure: "nM"
  observed: 19
- compound: "Cl.Cl.N[C@H]1CC[C@H](Nc2nc(NC3CCN(C(=O)Oc4ccc(F)cc4)CC3)c3ncn(C4CCCC4)c3n2)CC1 [compound 87, dihydrochloride]"
  observable: "IC50"
  units-of-measure: "nM"
  observed: 15
- compound: "N[C@H]1CC[C@H](Nc2nc(NC3CCN(C(=O)Nc4ccc(Br)cc4)CC3)c3ncn(C4CCCC4)c3n2)CC1 [compound 162, dihydrochloride]"
  observable: "IC50"
  units-of-measure: "nM"
  observed: 15
- compound: "N[C@H]1CC[C@H](Nc2nc(NC3CCN(C(=O)c4cc(Cl)cc(Cl)c4)CC3)c3ncn(C4CCCC4)c3n2)CC1"
  observable: "IC50"
  units-of-measure: "nM"
  observed: 44
- compound: "CCOC(=O)NC(=O)N1CCC(Nc2nc(N[C@H]3CC[C@H](N)CC3)nc3c2ncn3C2CCCC2)CC1 [compound 173, dihydrochloride]"
  observable: "IC50"
  units-of-measure: "nM"
  observed: 18

Hi there! I need IC50 for each item below, if you can.
1. COc1ccc(OC(=O)N2CCC(Nc3nc(N[C@H]4CC[C@H](N)CC4)nc4c3ncn4C3CCCC3)CC2)cc1.Cl.Cl [compound 84, dihydrochloride]
2. Cc1cccc(NC(=O)N2CCC(Nc3nc(N[C@H]4CC[C@H](N)CC4)nc4c3ncn4C3CCCC3)CC2)c1 [compound 210, dihydrochloride]
3. CCC(=O)N1CCC(Nc2nc(N[C@H]3CC[C@H](N)CC3)nc3c2ncn3C2CCCC2)CC1 [compound 53, dihydrochloride]
4. N[C@H]1CC[C@H](Nc2nc(NC3CCN(C(=O)c4cnc5ccccc5n4)CC3)c3ncn(C4CCCC4)c3n2)CC1 [compound 4, dihydrochloride]

**Result**
[19, 20, 40, 197]

====

target: cdk2/cyclin E (Homo sapiens); assay: Cyclin-dependent kinase assay, cdk2/cyclin E; conditions: CDK2 IC50, nM, GST-pRb substrate, 10 µM ATP
Where a name gives a salt, the structure may show the parent alone.
Hi there, I'd appreciate the recorded IC50 for every entry that follows.
One number for each entry, in nM.

- compound: "CCCCc1ccc(C(=O)N2CCC(Nc3nc(N[C@H]4CC[C@H](N)CC4)nc4c3ncn4C3CCCC3)CC2)cc1"
  units-of-measure: "nM"
  IC50: 121
- compound: "N[C@H]1CC[C@H](Nc2nc(NC3CCN(C(=O)Nc4ccc(F)cc4C(F)(F)F)CC3)c3ncn(C4CCCC4)c3n2)CC1 [compound 202, dihydrochloride]"
  units-of-measure: "nM"
  IC50: 48
- compound: "CCOC(=O)CC(=O)N1CCC(Nc2nc(N[C@H]3CC[C@H](N)CC3)nc3c2ncn3C2CCCC2)CC1 [compound 29, dihydrochloride]"
  units-of-measure: "nM"
  IC50: 56
- compound: "CCCCCNC(=O)N1CCC(Nc2nc(N[C@H]3CC[C@H](N)CC3)nc3c2ncn3C2CCCC2)CC1 [compound 184, dihydrochloride]"
  units-of-measure: "nM"
  IC50: 85
- compound: "CC(C)NC(=O)N1CCC(Nc2nc(N[C@H]3CC[C@H](N)CC3)nc3c2ncn3C2CCCC2)CC1 [compound 157, dihydrochloride]"
  units-of-measure: "nM"
  IC50: 32

Working through the 8 compounds below one at a time, give IC50 for each.
1. N[C@H]1CC[C@H](Nc2nc(NC3CCN(S(=O)(=O)c4ccc(Cl)c(Cl)c4)CC3)c3ncn(C4CCCC4)c3n2)CC1 [compound 138, dihydrochloride]
2. COC(=O)c1ccccc1S(=O)(=O)N1CCC(Nc2nc(N[C@H]3CC[C@H](N)CC3)nc3c2ncn3C2CCCC2)CC1.Cl.Cl [compound 111, dihydrochloride]
3. N[C@H]1CC[C@H](Nc2nc(NC3CCN(C(=O)Nc4ccccc4OC(F)(F)F)CC3)c3ncn(C4CCCC4)c3n2)CC1 [compound 174, dihydrochloride]
4. N[C@H]1CC[C@H](Nc2nc(NC3CCN(C(=O)C4CCCCC4)CC3)c3ncn(C4CCCC4)c3n2)CC1 [compound 55, dihydrochloride]
5. CCOC(=O)c1cccc(NC(=O)N2CCC(Nc3nc(N[C@H]4CC[C@H](N)CC4)nc4c3ncn4C3CCCC3)CC2)c1 [compound 195, dihydrochloride]
6. N[C@H]1CC[C@H](Nc2nc(NC3CCN(C(=O)Oc4ccccc4[N+](=O)[O-])CC3)c3ncn(C4CCCC4)c3n2)CC1 [compound 99, dihydrochloride]
7. COc1cc(C(=O)N2CCC(Nc3nc(N[C@H]4CC[C@H](N)CC4)nc4c3ncn4C3CCCC3)CC2)cc(OC)c1OC
8. N[C@H]1CC[C@H](Nc2nc(NC3CCN(C(=O)c4cc(C(F)(F)F)ccc4F)CC3)c3ncn(C4CCCC4)c3n2)CC1

**Result**
60
9
89
56
28
9
83
84

Below are some compounds; for each one, tell me its IC50.
1. Cl.Cl.N[C@H]1CC[C@H](Nc2nc(NC3CCN(C(=O)Oc4ccc(F)cc4)CC3)c3ncn(C4CCCC4)c3n2)CC1 [compound 87, dihydrochloride]
2. COc1ccc(OC(=O)N2CCC(Nc3nc(N[C@H]4CC[C@H](N)CC4)nc4c3ncn4C3CCCC3)CC2)cc1.Cl.Cl [compound 84, dihydrochloride]

**Result**
42
9

Just for reference, patent EP1377579B1 is where these values come from.
